Biological target: Glucocorticoid receptor (Homo sapiens, UniProt P04150)
Sequence (P04150 whole entry): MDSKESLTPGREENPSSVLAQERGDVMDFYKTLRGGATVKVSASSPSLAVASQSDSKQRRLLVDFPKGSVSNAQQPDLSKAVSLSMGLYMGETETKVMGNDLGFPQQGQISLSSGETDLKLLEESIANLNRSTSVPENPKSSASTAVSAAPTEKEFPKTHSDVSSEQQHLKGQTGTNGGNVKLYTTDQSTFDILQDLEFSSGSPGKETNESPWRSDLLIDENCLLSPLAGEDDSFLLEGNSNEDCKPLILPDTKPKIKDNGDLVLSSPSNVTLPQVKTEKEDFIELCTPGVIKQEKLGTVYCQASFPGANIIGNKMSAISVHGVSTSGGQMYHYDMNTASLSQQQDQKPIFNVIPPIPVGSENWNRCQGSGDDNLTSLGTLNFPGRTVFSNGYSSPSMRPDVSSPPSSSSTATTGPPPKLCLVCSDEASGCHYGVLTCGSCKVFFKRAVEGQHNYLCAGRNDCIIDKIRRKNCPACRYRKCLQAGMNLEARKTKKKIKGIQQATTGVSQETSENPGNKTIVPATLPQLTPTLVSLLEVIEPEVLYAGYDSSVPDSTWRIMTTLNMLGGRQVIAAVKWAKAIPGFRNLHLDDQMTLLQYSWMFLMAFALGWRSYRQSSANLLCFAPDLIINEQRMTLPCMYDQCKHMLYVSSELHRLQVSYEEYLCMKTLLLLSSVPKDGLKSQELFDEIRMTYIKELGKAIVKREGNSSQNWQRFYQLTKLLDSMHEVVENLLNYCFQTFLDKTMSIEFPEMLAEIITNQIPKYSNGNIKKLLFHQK
Experiment: Binding affinity for glucocorticoid receptor
Please respond with true when measured Ki is strictly beneath 9 nM, and with false in all other cases.

INSERT INTO measurements (compound, class) VALUES
  ('COc1ccc2c(c1)OC(c1ccccc1)c1c-2ccc2c1C(C)=CC(C)(C)N2 (stereo not drawn)', 'false'),
  ('COc1cccc2c1-c1ccc3c(c1C(c1ccccc1)O2)C(C)=CC(C)(C)N3 (single isomer, unassigned; (-))', 'true'),
  ('COc1cccc2c1-c1ccc3c(c1C(c1cccc(OCSC)c1)O2)C(C)=CC(C)(C)N3 (stereo not drawn)', 'true'),
  ('COc1ccc2c(c1)-c1ccc3c(c1C(c1ccccc1)O2)C(C)=CC(C)(C)N3 (stereo not drawn)', 'false'),
  ('COc1cccc2c1-c1ccc3c(c1C(c1cccc(C(F)(F)F)c1)O2)C(C)=CC(C)(C)N3 (stereo not drawn)', 'false'),
  ('COc1cccc2c1-c1ccc3c(c1C(c1ccccc1)O2)C(C)=CC(C)(C)N3 (stereo in doubt; 10)', 'true');

Is Ki strictly under 9 nM for the entry COc1cccc2c1-c1ccc3c(c1C(c1ccccc1)O2)C(C)=CC(C)(C)N3 (stereo in doubt; (+)19) ?
false

Is Ki strictly under 9 nM for the entry CC1=CC(C)(C)Nc2ccc3c(c21)C(c1ccccc1)Oc1ccc(Cl)cc1-3 (stereo not drawn) ?
false
